System: NCI-H841 complex tumor spheroid viability
Assay: Anticancer human tumor NCI-H841 cell line growth inhibition; active = viability on the fitted dose curve at most 10% of control; inactive = the rest;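 note: spheroids exposed to compounds for 7 days before readout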
Conditions: second compound 0.0003 µM; first compound 1 µM
Outcome codes: T (active), F (inactive)

{"COMPOUND": "COc1cc(C)[nH]c(=O)c1CN1CCc2c(Cl)cc(C(OC)C3COC3)c(Cl)c2C1=O (stereo unspecified) + COc1cc2c(cc1O)CCNC21CSC2c3c(OC(C)=O)c(C)c4c(c3C(COC1=O)N1C(O)C3Cc5cc(C)c(OC)c(O)c5C(C21)N3C)OCO4", "ASSIGNED LABEL": "F"}
{"COMPOUND": "COc1ccc([C@@H](O)c2cc(-c3ncnc4cc(N5CCOCC5)ccc34)c(F)cc2Cl)nn1 + COc1cc2c(cc1O)CCNC21CSC2c3c(OC(C)=O)c(C)c4c(c3C(COC1=O)N1C(O)C3Cc5cc(C)c(OC)c(O)c5C(C21)N3C)OCO4", "ASSIGNED LABEL": "T"}
{"COMPOUND": "CC1COCCN1c1cc(-c2ccnn2C)c2ccnc(-c3ccn[nH]3)c2n1 (stereo unspecified) + COc1cc2c(cc1O)CCNC21CSC2c3c(OC(C)=O)c(C)c4c(c3C(COC1=O)N1C(O)C3Cc5cc(C)c(OC)c(O)c5C(C21)N3C)OCO4", "ASSIGNED LABEL": "T"}
{"COMPOUND": "Cc1cc(C)c(CNC(=O)c2cc(-c3ccc(CN4CCOCC4)cc3)cc3c2cnn3C2CCCC2)c(=O)[nH]1 + COc1cc2c(cc1O)CCNC21CSC2c3c(OC(C)=O)c(C)c4c(c3C(COC1=O)N1C(O)C3Cc5cc(C)c(OC)c(O)c5C(C21)N3C)OCO4", "ASSIGNED LABEL": "F"}
{"COMPOUND": "CC(C)n1c(=O)n(C)c2cnc3cc(F)c(-c4ccc(OCCCN5CCCCC5)nc4)cc3c21 + COc1cc2c(cc1O)CCNC21CSC2c3c(OC(C)=O)c(C)c4c(c3C(COC1=O)N1C(O)C3Cc5cc(C)c(OC)c(O)c5C(C21)N3C)OCO4", "ASSIGNED LABEL": "T"}
{"COMPOUND": "[2H]c1nc(C)nc([2H])c1-c1cc(NC[C@@H](C)c2cccc3c(C(=O)NC)ccnc23)ncn1 + COc1cc2c(cc1O)CCNC21CSC2c3c(OC(C)=O)c(C)c4c(c3C(COC1=O)N1C(O)C3Cc5cc(C)c(OC)c(O)c5C(C21)N3C)OCO4", "ASSIGNED LABEL": "F"}

###

System: NCI-H841 complex tumor spheroid viability
Experiment: Anticancer human tumor NCI-H841 cell line growth inhibition;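 note: spheroids exposed to compounds for 7 days before readout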;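 for viability, T/C: 100% = DMSO vehicle control wells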
Settings: second compound 31.6 µM; first compound 0.949 µM; stronger effect = lower value
The entries below come with measured viability, T/C values attached.
RECORDED ENDPOINT: viability, T/C

{"COMPOUND": "Cc1sc2c(c1C)C(c1ccc(Cl)cc1)=NC(CC(=O)Nc1ccc(O)cc1)c1nnc(C)n1-2 (centres undefined) + Cn1nnc2c(C(N)=O)ncn2c1=O", "SYSTEM": "NCI-H841 complex tumor spheroid viability", "RESULT": "12.6%"}
{"COMPOUND": "Cn1ncnc1[C@H]1c2n[nH]c(=O)c3cc(F)cc(c23)N[C@@H]1c1ccc(F)cc1 + Cn1nnc2c(C(N)=O)ncn2c1=O", "SYSTEM": "NCI-H841 complex tumor spheroid viability", "RESULT": "2.88%"}
{"COMPOUND": "CNCc1ccc(-c2cc(-c3nc(-c4ccc(S(=O)(=O)C(C)C)cc4)cnc3N)on2)cc1 + Cn1nnc2c(C(N)=O)ncn2c1=O", "SYSTEM": "NCI-H841 complex tumor spheroid viability", "RESULT": "1.91%"}
{"COMPOUND": "O=C(c1cc(Cc2n[nH]c(=O)c3ccccc23)ccc1F)N1CCN(C(=O)C2CC2)CC1 + Cn1nnc2c(C(N)=O)ncn2c1=O", "SYSTEM": "NCI-H841 complex tumor spheroid viability", "RESULT": "4.8%"}

###

Tested on: NCI-H841 complex tumor spheroid viability
Assay: Anticancer human tumor NCI-H841 cell line growth inhibition; active means viability on the fitted dose curve at most 10% of control; inactive means the rest;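 note: spheroids exposed to compounds for 7 days before readout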
Details: second compound 1 µM; first compound 10 µM
Outcome codes: active, inactive

{"COMPOUND": "COc1ccc([C@@H](O)c2cc(-c3ncnc4cc(N5CCOCC5)ccc34)c(F)cc2Cl)nn1 + Cn1nnc2c(C(N)=O)ncn2c1=O", "ASSIGNED LABEL": "active"}
{"COMPOUND": "Cc1cc(C)c(CNC(=O)c2cc(-c3ccc(CN4CCOCC4)cc3)cc3c2cnn3C2CCCC2)c(=O)[nH]1 + Cn1nnc2c(C(N)=O)ncn2c1=O", "ASSIGNED LABEL": "inactive"}
{"COMPOUND": "CC(C)n1c(=O)n(C)c2cnc3cc(F)c(-c4ccc(OCCCN5CCCCC5)nc4)cc3c21 + Cn1nnc2c(C(N)=O)ncn2c1=O", "ASSIGNED LABEL": "inactive"}
{"COMPOUND": "CC1COCCN1c1cc(-c2ccnn2C)c2ccnc(-c3ccn[nH]3)c2n1 (stereo unspecified) + Cn1nnc2c(C(N)=O)ncn2c1=O", "ASSIGNED LABEL": "active"}
{"COMPOUND": "[2H]c1nc(C)nc([2H])c1-c1cc(NC[C@@H](C)c2cccc3c(C(=O)NC)ccnc23)ncn1 + Cn1nnc2c(C(N)=O)ncn2c1=O", "ASSIGNED LABEL": "inactive"}
{"COMPOUND": "COc1cc(C)[nH]c(=O)c1CN1CCc2c(Cl)cc(C(OC)C3COC3)c(Cl)c2C1=O (stereo unspecified) + Cn1nnc2c(C(N)=O)ncn2c1=O", "ASSIGNED LABEL": "inactive"}

###

System: NCI-H841 complex tumor spheroid viability
Assay: Anticancer human tumor NCI-H841 cell line growth inhibition;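 note: spheroids exposed to compounds for 7 days before readout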;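 for viability, T/C: 100% = DMSO vehicle control wells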
Conditions: second compound 0.000949 µM; first compound 10 µM; stronger effect = lower value
The entries below come with measured viability, T/C values attached.
RECORDED ENDPOINT: viability, T/C (%)

{"MOLECULE": "COc1cc(C)[nH]c(=O)c1CN1CCc2c(Cl)cc(C(OC)C3COC3)c(Cl)c2C1=O (stereo unspecified) + COc1cc2c(cc1O)CCNC21CSC2c3c(OC(C)=O)c(C)c4c(c3C(COC1=O)N1C(O)C3Cc5cc(C)c(OC)c(O)c5C(C21)N3C)OCO4", "NUMERIC RESULT": 0.9}
{"MOLECULE": "Cc1cc(C)c(CNC(=O)c2cc(-c3ccc(CN4CCOCC4)cc3)cc3c2cnn3C2CCCC2)c(=O)[nH]1 + COc1cc2c(cc1O)CCNC21CSC2c3c(OC(C)=O)c(C)c4c(c3C(COC1=O)N1C(O)C3Cc5cc(C)c(OC)c(O)c5C(C21)N3C)OCO4", "NUMERIC RESULT": 1.15}
{"MOLECULE": "COc1ccc([C@@H](O)c2cc(-c3ncnc4cc(N5CCOCC5)ccc34)c(F)cc2Cl)nn1 + COc1cc2c(cc1O)CCNC21CSC2c3c(OC(C)=O)c(C)c4c(c3C(COC1=O)N1C(O)C3Cc5cc(C)c(OC)c(O)c5C(C21)N3C)OCO4", "NUMERIC RESULT": 0.14}
{"MOLECULE": "[2H]c1nc(C)nc([2H])c1-c1cc(NC[C@@H](C)c2cccc3c(C(=O)NC)ccnc23)ncn1 + COc1cc2c(cc1O)CCNC21CSC2c3c(OC(C)=O)c(C)c4c(c3C(COC1=O)N1C(O)C3Cc5cc(C)c(OC)c(O)c5C(C21)N3C)OCO4", "NUMERIC RESULT": 3.46}
{"MOLECULE": "CC1COCCN1c1cc(-c2ccnn2C)c2ccnc(-c3ccn[nH]3)c2n1 (stereo unspecified) + COc1cc2c(cc1O)CCNC21CSC2c3c(OC(C)=O)c(C)c4c(c3C(COC1=O)N1C(O)C3Cc5cc(C)c(OC)c(O)c5C(C21)N3C)OCO4", "NUMERIC RESULT": 0.21}
{"MOLECULE": "CC(C)n1c(=O)n(C)c2cnc3cc(F)c(-c4ccc(OCCCN5CCCCC5)nc4)cc3c21 + COc1cc2c(cc1O)CCNC21CSC2c3c(OC(C)=O)c(C)c4c(c3C(COC1=O)N1C(O)C3Cc5cc(C)c(OC)c(O)c5C(C21)N3C)OCO4", "NUMERIC RESULT": 1.47}

###

The entries below come with measured IC50 values attached.
System: NCI-H841 complex tumor spheroid viability
Assay: Anticancer human tumor NCI-H841 cell line growth inhibition;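 note: spheroids exposed to compounds for 7 days before readout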
Conditions: curve of first compound; second compound 30 pM
RECORDED ENDPOINT: IC50 (nM)

{"COMPOUND": "COc1ccc([C@@H](O)c2cc(-c3ncnc4cc(N5CCOCC5)ccc34)c(F)cc2Cl)nn1 + COc1cc2c(cc1O)CCNC21CSC2c3c(OC(C)=O)c(C)c4c(c3C(COC1=O)N1C(O)C3Cc5cc(C)c(OC)c(O)c5C(C21)N3C)OCO4", "RECORDED ENDPOINT": "IC50", "OPERATOR SYMBOL": "=", "NUMERIC RESULT": 2950}
{"COMPOUND": "CC1COCCN1c1cc(-c2ccnn2C)c2ccnc(-c3ccn[nH]3)c2n1 (stereo not given) + COc1cc2c(cc1O)CCNC21CSC2c3c(OC(C)=O)c(C)c4c(c3C(COC1=O)N1C(O)C3Cc5cc(C)c(OC)c(O)c5C(C21)N3C)OCO4", "RECORDED ENDPOINT": "IC50", "OPERATOR SYMBOL": "<", "NUMERIC RESULT": 31.6}
{"COMPOUND": "Cc1cc(C)c(CNC(=O)c2cc(-c3ccc(CN4CCOCC4)cc3)cc3c2cnn3C2CCCC2)c(=O)[nH]1 + COc1cc2c(cc1O)CCNC21CSC2c3c(OC(C)=O)c(C)c4c(c3C(COC1=O)N1C(O)C3Cc5cc(C)c(OC)c(O)c5C(C21)N3C)OCO4", "RECORDED ENDPOINT": "IC50", "OPERATOR SYMBOL": ">", "NUMERIC RESULT": 10000}
{"COMPOUND": "O=C(c1cc(Cc2n[nH]c(=O)c3ccccc23)ccc1F)N1CCN(C(=O)C2CC2)CC1 + COc1cc2c(cc1O)CCNC21CSC2c3c(OC(C)=O)c(C)c4c(c3C(COC1=O)N1C(O)C3Cc5cc(C)c(OC)c(O)c5C(C21)N3C)OCO4", "RECORDED ENDPOINT": "IC50", "OPERATOR SYMBOL": "=", "NUMERIC RESULT": 4580}
{"COMPOUND": "[2H]c1nc(C)nc([2H])c1-c1cc(NC[C@@H](C)c2cccc3c(C(=O)NC)ccnc23)ncn1 + COc1cc2c(cc1O)CCNC21CSC2c3c(OC(C)=O)c(C)c4c(c3C(COC1=O)N1C(O)C3Cc5cc(C)c(OC)c(O)c5C(C21)N3C)OCO4", "RECORDED ENDPOINT": "IC50", "OPERATOR SYMBOL": ">", "NUMERIC RESULT": 10000}
{"COMPOUND": "CC(C)n1c(=O)n(C)c2cnc3cc(F)c(-c4ccc(OCCCN5CCCCC5)nc4)cc3c21 + COc1cc2c(cc1O)CCNC21CSC2c3c(OC(C)=O)c(C)c4c(c3C(COC1=O)N1C(O)C3Cc5cc(C)c(OC)c(O)c5C(C21)N3C)OCO4", "RECORDED ENDPOINT": "IC50", "OPERATOR SYMBOL": ">", "NUMERIC RESULT": 10000}
{"COMPOUND": "Cc1sc2c(c1C)C(c1ccc(Cl)cc1)=NC(CC(=O)Nc1ccc(O)cc1)c1nnc(C)n1-2 (stereo not given) + COc1cc2c(cc1O)CCNC21CSC2c3c(OC(C)=O)c(C)c4c(c3C(COC1=O)N1C(O)C3Cc5cc(C)c(OC)c(O)c5C(C21)N3C)OCO4", "RECORDED ENDPOINT": "IC50", "OPERATOR SYMBOL": "=", "NUMERIC RESULT": 515}
{"COMPOUND": "COc1cc(C)[nH]c(=O)c1CN1CCc2c(Cl)cc(C(OC)C3COC3)c(Cl)c2C1=O (stereo not given) + COc1cc2c(cc1O)CCNC21CSC2c3c(OC(C)=O)c(C)c4c(c3C(COC1=O)N1C(O)C3Cc5cc(C)c(OC)c(O)c5C(C21)N3C)OCO4", "RECORDED ENDPOINT": "IC50", "OPERATOR SYMBOL": "=", "NUMERIC RESULT": 9900}
{"COMPOUND": "Cn1ncnc1[C@H]1c2n[nH]c(=O)c3cc(F)cc(c23)N[C@@H]1c1ccc(F)cc1 + COc1cc2c(cc1O)CCNC21CSC2c3c(OC(C)=O)c(C)c4c(c3C(COC1=O)N1C(O)C3Cc5cc(C)c(OC)c(O)c5C(C21)N3C)OCO4", "RECORDED ENDPOINT": "IC50", "OPERATOR SYMBOL": "=", "NUMERIC RESULT": 514}
{"COMPOUND": "CNCc1ccc(-c2cc(-c3nc(-c4ccc(S(=O)(=O)C(C)C)cc4)cnc3N)on2)cc1 + COc1cc2c(cc1O)CCNC21CSC2c3c(OC(C)=O)c(C)c4c(c3C(COC1=O)N1C(O)C3Cc5cc(C)c(OC)c(O)c5C(C21)N3C)OCO4", "RECORDED ENDPOINT": "IC50", "OPERATOR SYMBOL": "=", "NUMERIC RESULT": 205}

Values compiled from PubChem BioAssay AID1845213.
